Experiment: Evaluation of oral bioavailability by mouse bioassay
Assay type: in vivo
Conditions: 10 mg/kg oral, female Balb/C mice, serum 15 minutes after administration, read-out: Blood level
ENDPOINT: concentration at 15 min (ng/mL)

• O=C(Nc1ccc(CC(=O)N2C[C@@H](F)C[C@H]2CO[C@H]2CC[C@H](C(=O)O)CC2)cc1Br)c1nccc2ccccc12 = 9370

I. COC[C@@H]1CC[C@@H](CO[C@H]2CC[C@H](C(=O)O)CC2)N1C(=O)Cc1cc(Cl)c(NC(=O)c2cn(C)c3ccccc23)cc1F
II. CS[C@H]1C[C@@H](CO[C@H]2CC[C@H](C(=O)O)CC2)N(C(=O)Cc2cc(Cl)c(NC(=O)c3cn(C)c4ccccc34)cc2F)C1
Lab note: record which item had the higher concentration at 15 min, I or II . I would appreciate it if you answered with the label of your choice.
I

* * *

Target: integrins haα4 and β1 (VLA-4) expressed on CHO cells (Homo sapiens, UniProt P05556+P13612)
Sequence (P13612 34-1032): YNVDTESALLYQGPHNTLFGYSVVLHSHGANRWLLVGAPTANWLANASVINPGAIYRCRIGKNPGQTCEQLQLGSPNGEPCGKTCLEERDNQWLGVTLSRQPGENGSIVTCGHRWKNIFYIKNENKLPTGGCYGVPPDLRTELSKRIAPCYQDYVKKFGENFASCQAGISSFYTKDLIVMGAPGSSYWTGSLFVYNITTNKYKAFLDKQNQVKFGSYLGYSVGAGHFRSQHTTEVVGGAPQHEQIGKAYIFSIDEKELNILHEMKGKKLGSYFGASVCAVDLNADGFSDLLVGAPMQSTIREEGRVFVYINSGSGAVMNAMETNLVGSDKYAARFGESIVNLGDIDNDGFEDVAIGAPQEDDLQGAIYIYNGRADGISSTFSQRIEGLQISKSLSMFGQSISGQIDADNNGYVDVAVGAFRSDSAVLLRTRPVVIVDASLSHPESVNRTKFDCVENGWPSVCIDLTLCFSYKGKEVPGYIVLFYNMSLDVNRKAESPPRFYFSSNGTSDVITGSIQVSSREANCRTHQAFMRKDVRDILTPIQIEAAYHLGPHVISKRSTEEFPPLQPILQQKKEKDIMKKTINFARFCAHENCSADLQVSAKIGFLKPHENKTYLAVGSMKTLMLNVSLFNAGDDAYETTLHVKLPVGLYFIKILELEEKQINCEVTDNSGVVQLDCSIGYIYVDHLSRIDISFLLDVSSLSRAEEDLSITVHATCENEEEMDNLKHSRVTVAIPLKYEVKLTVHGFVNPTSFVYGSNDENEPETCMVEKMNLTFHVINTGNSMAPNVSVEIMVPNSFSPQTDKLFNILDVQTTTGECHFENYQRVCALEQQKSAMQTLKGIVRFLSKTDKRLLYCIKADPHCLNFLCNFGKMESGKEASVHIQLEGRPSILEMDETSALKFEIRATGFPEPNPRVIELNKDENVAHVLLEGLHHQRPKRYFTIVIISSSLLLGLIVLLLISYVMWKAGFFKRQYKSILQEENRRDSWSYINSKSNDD
Sequence (P05556 21-798): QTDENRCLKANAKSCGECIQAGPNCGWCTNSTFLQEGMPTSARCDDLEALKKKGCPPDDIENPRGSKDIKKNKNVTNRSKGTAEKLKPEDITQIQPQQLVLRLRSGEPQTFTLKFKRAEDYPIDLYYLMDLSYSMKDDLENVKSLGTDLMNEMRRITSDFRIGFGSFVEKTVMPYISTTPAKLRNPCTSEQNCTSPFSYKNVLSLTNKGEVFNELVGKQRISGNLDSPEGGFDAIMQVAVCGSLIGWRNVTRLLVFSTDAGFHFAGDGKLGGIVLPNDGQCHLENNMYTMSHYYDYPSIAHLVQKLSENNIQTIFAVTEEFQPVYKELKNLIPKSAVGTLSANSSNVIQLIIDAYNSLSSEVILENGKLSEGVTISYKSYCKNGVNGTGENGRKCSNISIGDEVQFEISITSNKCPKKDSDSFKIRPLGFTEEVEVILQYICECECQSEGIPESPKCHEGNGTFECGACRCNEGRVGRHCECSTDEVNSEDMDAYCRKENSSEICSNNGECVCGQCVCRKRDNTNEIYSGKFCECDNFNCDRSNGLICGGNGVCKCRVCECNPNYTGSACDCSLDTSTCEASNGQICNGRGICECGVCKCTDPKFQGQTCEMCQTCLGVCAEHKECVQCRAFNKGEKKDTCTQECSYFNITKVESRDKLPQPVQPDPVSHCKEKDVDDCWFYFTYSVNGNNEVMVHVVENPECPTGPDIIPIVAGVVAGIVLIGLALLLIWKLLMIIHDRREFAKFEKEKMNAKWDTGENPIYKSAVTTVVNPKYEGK
Assay: In vitro Evaluation Test (1): binding of Eu3+-hVCAM-1 D1D7-IgG to CHO cells expressing integrins α4 and β1
Settings: inhibition of Eu3+-hVCAM-1 D1D7-IgG binding to CHO cells expressing α4β1; Ki calculated from IC50
Method: CHO cells forcedly expressed by the transduction of integrins haα4 and β1 were seeded in a Coster 3599 plate (3×10^4 cells/100 μl/well) and they were cultured for 2 days. After the medium was washed with buffer A* twice, 50 μl/well of Eu^3+-hVCAM-1 D1D7-IgG diluted to […] with an assay buffer ** was added. […] The plate was shaken for 5 minutes on a plate mixer, followed by measurement of fluorescence intensity by a time-resolved fluorometer (DELFIA Wallac). […] The value Ki was calculated based on: […]
ENDPOINT: Ki (nM)

* Cc1ccccc1Nc1nc2ccc(CC(=O)N3C[C@@H](O)C[C@H]3COc3ccc(C(=O)O)cc3)cc2o1 | 24
* CN(C)C(=O)CO[C@H]1C[C@@H](CO[C@H]2CC[C@H](C(=O)O)CC2)N(C(=O)Cc2cc(Cl)c(NC(=O)c3cn(C)c4ccccc34)cc2F)C1 | 1.9

a. O=C(Nc1ccc(CC(=O)N2C[C@@H](F)C[C@H]2CO[C@H]2CC[C@H](C(=O)O)CC2)cc1Cl)N1CCc2ccc(F)cc21
b. Cn1cc(C(=O)Nc2cc(Cl)c(CC(=O)N3C[C@@H](F)C[C@H]3CO[C@H]3CC[C@H](C(=O)O)CC3)cc2Cl)c2ccccc21
Lab note: record which item had the higher Ki, a or b . I would appreciate it if you answered with the label of your choice.
b

a. Cc1ccc(F)cc1Nc1nc2ccc(CC(=O)N3CC[C@@H](O[C@H]4CC[C@H](C(=O)O)CC4)C3)c(F)c2o1
b. Cc1ccc(F)cc1Nc1nc2c(F)cc(CC(=O)N3C[C@@H](F)C[C@H]3CO[C@H]3CC[C@H](C(=O)O)CC3)cc2o1
c. CO[C@H]1C[C@@H](CO[C@H]2CC[C@H](C(=O)O)CC2)N(C(=O)Cc2cc(Cl)c(NC(=O)c3nn(C)c4ccccc34)cc2F)C1
hey, can you rank those molecules up there by Ki? biggest number first please Field: ranking. Enter the labels in the order requested.
a, b, c
(a: 61 nM, b: 5.8 nM, c: 3.9 nM)

A. COc1cc(CC(=O)N2C[C@@H](F)C[C@H]2CO[C@H]2CC[C@H](C(=O)O)CC2)c(F)cc1NC(=O)c1cn(C)c2ccccc12
B. O=C(Cc1ccc(Nc2nc3ccc(Cl)cc3s2)c(Cl)c1)N1C[C@@H](F)C[C@H]1CO[C@H]1CC[C@H](C(=O)O)CC1
Lab note: record which item had the higher Ki, A or B . I would appreciate it if you answered with the label of your choice.
B

* * *

Assay: Pharmacokinetics and oral bioavailability in rats
Assay type: in vivo
Settings: 5 /kg; Rat, oral, Dose/kg 5.0; plasma, LC/MS/MS
ENDPOINT: AUC (ng·h/mL)
Report as a plain number; the unit ng·h/mL is understood.

Fill in reported AUC for this entry: Cc1ccccc1Nc1nc2ccc(CC(=O)N3C[C@@H](F)C[C@H]3COC3CCC(C(=O)O)CC3)cc2o1 (single isomer, unassigned) [21 (Isomer H)]
14900

* * *

Test: Evaluation of oral bioavailability by mouse bioassay
Type: in vivo
Conditions: 10 mg/kg oral, female Balb/C mice, serum 15 minutes after administration, read-out: Blood level
ENDPOINT: concentration at 15 min (ng/mL)

* Cn1cc(C(=O)Nc2cc(F)c(CC(=O)N3C[C@@H](F)C[C@H]3CO[C@H]3CC[C@H](C(=O)O)CC3)cc2Cl)c2ccccc21 [Example 65] | 11500
* O=C(Cc1cc(Cl)c(Nc2nc3ccccc3s2)cc1F)N1C[C@@H](F)C[C@H]1CO[C@H]1CC[C@H](C(=O)O)CC1 [Example 61] | 3320

a. Cn1cc(C(=O)Nc2cc(Cl)c(CC(=O)N3C[C@@H](F)C[C@H]3CO[C@H]3CC[C@H](C(=O)O)CC3)cc2Cl)c2ccccc21 [Example 72]
b. O=C(O)C1CCC(OC[C@@H]2C[C@H](F)CN2C(=O)Cc2ccc3nc(Nc4ccccc4Cl)oc3c2F)CC1 (stereo partly drawn) [Example 37]
c. O=C(O)C1CCC(OC[C@@H]2C[C@H](F)CN2C(=O)Cc2ccc3nc(Nc4ccccc4Br)oc3c2)CC1 (single isomer, unassigned) [25 (Isomer A)]
d. Cn1nc(C(=O)Nc2cc(F)c(CC(=O)N3C[C@@H](F)C[C@H]3CO[C@H]3CC[C@H](C(=O)O)CC3)cc2Cl)c2ccccc21 [Example 87]
rank_up(items): orders items by reported concentration at 15 min in ascending numerical order. Field: ranking. Enter the labels in the order requested.
c, a, b, d
(c: 1090 ng/mL, a: 1880 ng/mL, b: 3690 ng/mL, d: 15100 ng/mL)

* * *

Assay: Pharmacokinetics and oral bioavailability in rats
Assay type: in vivo
Settings: plasma, 2 /kg; Rat, oral, Dose/kg 2.0; read-out: F (%) oral bioavailability
ENDPOINT: bioavailability (%)
Report as a plain number; the unit % is understood.

Fill in reported bioavailability for this entry: CO[C@H]1C[C@@H](COC2CCC(C(=O)O)CC2)N(C(=O)Cc2ccc3nc(Nc4ccccc4C)oc3c2)C1 (single isomer, unassigned) [20 (Isomer A)]
35

* * *

Biological target: integrins haα4 and β1 (VLA-4) expressed on CHO cells (Homo sapiens, UniProt P05556+P13612)
Test: In vitro Evaluation Test (1): binding of Eu3+-hVCAM-1 D1D7-IgG to CHO cells expressing integrins α4 and β1
Conditions: inhibition of Eu3+-hVCAM-1 D1D7-IgG binding to CHO cells expressing α4β1; Ki calculated from IC50
ENDPOINT: Ki (nM)

Worked examples, 3 compounds total:
- O=C(Nc1ccc(CC(=O)N2C[C@@H](F)C[C@H]2CO[C@H]2CC[C@H](C(=O)O)CC2)cc1Cl)c1nsc2ccccc12 [Example 83]: 1.9
- COC[C@H]1CC[C@@H](CO[C@H]2CC[C@@H](C(=O)O)CC2)N1C(=O)Cc1ccc2nc(Nc3cc(F)ccc3C)oc2c1F [Example 165]: 2.9
- Cc1ccccc1Nc1nc2ccc(CC(=O)N3C[C@@H](N(C)C)C[C@H]3COc3ccc(C(=O)O)cc3)cc2o1 [Example 7]: 7.1

a. Cc1ccccc1Nc1nc2ccc(CC(=O)N3C[C@@H](F)C[C@H]3COc3ccc(C(=O)O)cn3)cc2o1 [Example 18]
b. Cn1cc(-c2nc3ccc(CC(=O)N4C[C@@H](F)C[C@H]4COC4CCC(C(=O)O)CC4)cc3o2)c2ccccc21 (stereo partly shown) [Example 40]
c. Cc1ccccc1Nc1nc2ccc(CC(=O)N3C[C@@H](F)C[C@H]3C(=O)N3CCN(CC(=O)O)CC3)cc2o1 [Example 30]
d. O=C(Nc1ccc(CC(=O)N2C[C@@H](F)C[C@H]2CO[C@H]2CC[C@H](C(=O)O)CC2)cc1Br)c1c[nH]c2ccccc12 [Example 64]
rank_up(items): orders items by reported Ki in ascending numerical order. Field: ranking. Enter the labels in the order requested.
d, b, a, c

* * *

Test: Pharmacokinetics and oral bioavailability in rats
Type: in vivo
Details: 2 /kg; Rat, oral, Dose/kg 2.0; plasma, LC/MS/MS
ENDPOINT: AUC (ng·h/mL)
Report as a plain number; the unit ng·h/mL is understood.

Fill in reported AUC for this entry: CO[C@H]1C[C@@H](COC2CCC(C(=O)O)CC2)N(C(=O)Cc2ccc3nc(Nc4ccccc4C)oc3c2)C1 (single isomer, unassigned) [20 (Isomer A)]
152

* * *

Biological target: integrins haα4 and β1 (VLA-4) expressed on CHO cells (Homo sapiens, UniProt P05556+P13612)
Construct: expressed in transfected cells; host or cells: CHO cells
Experiment: In vitro Evaluation Test (1): binding of Eu3+-hVCAM-1 D1D7-IgG to CHO cells expressing integrins α4 and β1
Settings: inhibition of Eu3+-hVCAM-1 D1D7-IgG binding to CHO cells expressing α4β1; Ki calculated from IC50
pKi: −log10 of the molar value.
ENDPOINT: pKi

Worked examples, 4 molecules total:
- CC(=O)N(C)[C@H]1C[C@@H](CO[C@H]2CC[C@H](C(=O)O)CC2)N(C(=O)Cc2cc(Cl)c(NC(=O)c3cn(C)c4ccccc34)cc2F)C1: 7.74
- Cn1cc(C(=O)Nc2cc(F)c(CC(=O)N3CC[C@@H](CO[C@H]4CC[C@H](C(=O)O)CC4)C3)cc2Cl)c2ccccc21: 7.41
- Cn1cc(C(=O)Nc2ccc(CC(=O)N3C[C@@H](F)C[C@H]3COc3ccc(C(=O)O)cn3)cc2Cl)c2ccccc21: 8.00
- Cn1cc(-c2nc3ccc(CC(=O)N4C[C@@H](F)C[C@H]4CO[C@H]4CC[C@H](C(=O)O)CC4)cc3o2)c2cc(Cl)ccc21: 7.70

a. Cc1ccc(F)cc1Nc1nc2ccc(CC(=O)N3C[C@@H](C)C[C@H]3CO[C@H]3CC[C@H](C(=O)O)CC3)c(F)c2o1
b. Cn1cc(-c2nc3ccc(CC(=O)N4C[C@@H](F)C[C@H]4CN[C@H]4CC[C@H](C(=O)O)CC4)c(F)c3o2)c2ccccc21
Lab note: record which item had the higher pKi, a or b . I would appreciate it if you answered with the label of your choice.
a
